# procedure text: Protic acid hydrolysis rates of triarylmethyl groups attached to the 5'-hydroxyl of deoxynucleosides (Table VIII)
# Type: physicochemical
# reported conditions: 2% toluenesulfonic acid in chloroform:methanol (7:3)
measurement kind: Time to Complete Hydrolysis (s)
Answers are plain numbers, in s.

For orientation, consider the following solved cases.
- COc1ccccc1C(OC[C@H]1O[C@@H](n2cnc3c(=O)[nH]c(NC(=O)C(C)C)nc32)C[C@@H]1O)(c1ccccc1)c1ccccc1OC: 45
- COc1ccccc1C(OC[C@H]1O[C@@H](n2cc(C)c(=O)[nH]c2=O)C[C@@H]1O)(c1ccccc1OC)c1cccc2ccccc12: 90
- COc1ccc(C(OC[C@H]2O[C@@H](n3cnc4c(NC(=O)c5ccccc5)ncnc43)C[C@@H]2O)(c2ccccc2)c2ccc(OC)cc2)cc1: 30
- COc1ccccc1C(OC[C@H]1O[C@@H](n2ccc(NC(=O)c3ccccc3)nc2=O)C[C@@H]1O)(c1ccccc1OC)c1cccc2ccccc12: 120
- COc1ccc(C(OC[C@H]2O[C@@H](n3cnc4c(=O)[nH]c(NC(=O)C(C)C)nc43)C[C@@H]2O)(c2ccccc2)c2ccc(OC)cc2)cc1: 30
- COc1ccc(C(OC[C@H]2O[C@@H](n3ccc(NC(=O)c4ccccc4)nc3=O)C[C@@H]2O)(c2ccccc2)c2ccc(OC)cc2)cc1: 30
- Cc1ccc(C(OC[C@H]2O[C@@H](n3cnc4c(NC(=O)c5ccccc5)ncnc43)C[C@@H]2O)(c2ccccc2)c2ccccc2)cc1: 240
- COc1ccc(C(OC[C@H]2O[C@@H](n3cc(C)c(=O)[nH]c3=O)C[C@@H]2O)(c2ccccc2)c2ccc(OC)cc2)cc1: 30

Next molecule, please.
Given the molecule COc1ccc(C(OC[C@H]2O[C@@H](n3cc(C)c(=O)[nH]c3=O)C[C@@H]2O)(c2ccccc2)c2cccc3ccccc23)cc1 (stereo partly shown) , what is its reported Time to Complete Hydrolysis? 45

---

# procedure text: Protic acid hydrolysis rates of triarylmethyl groups attached to the 5'-hydroxyl of deoxynucleosides (Table VIII)
# Type: physicochemical
# reported conditions: 2% toluenesulfonic acid in chloroform:methanol (7:3)
measurement kind: t1/2 in H+ (s)
Answers are plain numbers, in s.

The examples below pair each entry with its known result.
* COc1ccc(C(OC[C@H]2O[C@@H](n3cc(C)c(=O)[nH]c3=O)C[C@@H]2O)(c2ccccc2)c2cccc3ccccc23)cc1 (some centres unmarked) [R1 = n; R2 = c; R3 = a, T] | 30
* COc1ccccc1C(OC[C@H]1O[C@@H](n2cnc3c(=O)[nH]c(NC(=O)C(C)C)nc32)C[C@@H]1O)(c1ccccc1)c1ccccc1OC [R1 = R2 = b; R3 = a, G] | 15
* COc1ccccc1C(OC[C@H]1O[C@@H](n2cc(C)c(=O)[nH]c2=O)C[C@@H]1O)(c1ccccc1OC)c1cccc2ccccc12 [R1 = R2 = b; R3 = n, T] | 45
* Cc1cn([C@H]2C[C@H](O)[C@@H](COC(c3ccccc3)(c3ccc(F)cc3)c3cccc4ccccc34)O2)c(=O)[nH]c1=O (some centres unmarked) [R1 = n; R2 = e; R3 = a, T] | 180

Any idea what t1/2 in H+ was measured for Cc1ccc(C(OC[C@H]2O[C@@H](n3cnc4c(NC(=O)c5ccccc5)ncnc43)C[C@@H]2O)(c2ccccc2)c2ccccc2)cc1 [R1 = h; R2 = R3 = a, A] ? 60
